Each entry below lists one item and its recorded %Inh value.
# Test system: MLK2
# testSettings: concentration: 1 μM, replicates: in singlicate; n = 1;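 also: KINOMEscan kinase panel screen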
The reply should be a number in %, with the unit left off.

Answered cases to consult:
> print(dat)
                                   compound  observedmeasurement
1  COc1cccc(C2=C(N(C)c3ccccc3)C(=O)NC2=O)c1 [SB-334865]                    0
2  COc1cc(Nc2nccc(N3CCC(NC(=O)C(C)c4ccc(Cl)cc4)C3)n2)cc(OC)c1OC (stereo not drawn) [GSK1379757]                    0
3  Nc1n[nH]c2nnc(-c3ccccc3)c(-c3ccccc3)c12 [GW554060]                    0
4  O=C(NCc1cccs1)c1cc(C(=O)c2c(Cl)cccc2Cl)c[nH]1 [GW823670]                   13
5  COc1cc(Nc2ccnc3ccc(C(F)(F)F)cc23)cc(OC)c1OC [GW577382]                   31

Consider the additional compound presented here.
Q: What %Inh appears in the records for this compound with MLK2? CCCC(=O)Nc1n[nH]c2ncc(-c3cccc4ccccc34)cc12 [SB-642057]
Result: 0

====

# System: ROS1
# testSettings: concentration: 1 μM, replicates: in singlicate; n = 1
Each entry below lists one item and its recorded %Inh value.
The reply should be a number in %, with the unit left off.

Answered cases to consult:
> print(dat)
                                   compound  experimentalendpoint  u  observedmeasurement
1  COc1ccc(-c2cc3c(C)nc(N)nc3n([C@H]3CC[C@H](OCCO)CC3)c2=O)cn1                  %Inh  %                    9
2  COc1ccc(CNC(=O)NC2CCN(c3ccnc(Nc4ccc(F)cc4)n3)C2)cc1 (centres unmarked) [GSK1379706]                  %Inh  %                   12
3  COC(=O)c1c(-c2ccccc2)c2cc(Br)ccc2c(=O)n1Cc1ccc(NC(=O)CCC(=O)O)cc1                  %Inh  %                    0

Consider the additional compound presented here.
Q: Give its %Inh value. Item: `COc1ccc(-c2coc3ccc(-c4nnc(SCc5cccc(C#N)c5)o4)cc23)cc1`
Result: 18

====

# Tested on: LATS1
# testSettings: concentration: 1 μM, replicates: in singlicate; n = 1
experimentalEndpoint: %Inh (%)
The reply should be a number in %, with the unit left off.

Answered cases to consult:
> print(dat)
                                   compound  targetdesc  u  observedmeasurement
1  Cc1cc(Nc2nc(-c3cccc(C)n3)nc3ccccc23)ccn1       LATS1  %                    0
2  Cc1ccc(-c2ccc3c(ccc4sc5c(c43)NC[C@@H](C)N=C5N(C)C)n2)cn1       LATS1  %                    0
3  Cc1nnc(-c2ccc(C)c(-c3ccc(C(=O)O)cc3)c2)o1       LATS1  %                    0
4  COc1cc(Nc2nccc(N3CCC(NC(=O)C4COc5ccccc5O4)C3)n2)cc(OC)c1OC (centres unmarked)       LATS1  %                    3
5  COc1cc(Nc2nccc(N3CCC(NC(=O)C(C)c4ccc(Cl)cc4)C3)n2)cc(OC)c1OC (centres unmarked)       LATS1  %                    0

Q: What %Inh appears in the records for this compound with LATS1? `COC(=O)c1c(-c2ccccc2)c2cc(Br)ccc2c(=O)n1Cc1ccc(NC(=O)CCC(=O)O)cc1`
Result: 27

Q: What %Inh appears in the records for this compound with LATS1? `O=C(NCCNc1ccnc(Nc2ccc(F)cc2)n1)Nc1ccc2c(c1)OCO2`
Result: 0

Q: What %Inh appears in the records for this compound with LATS1? CCS(=O)c1ccc(-c2coc3ccc(-c4nnc(C)o4)cc23)cc1 (centres unmarked)
Result: 18

Q: What %Inh appears in the records for this compound with LATS1? `Nc1ncnc2c1ncn2-c1ccc(Cl)cc1`
Result: 0

Q: What %Inh appears in the records for this compound with LATS1? `CCS(=O)(=O)c1ccc(OC)c(Nc2ncc(-c3ccc(F)cc3)o2)c1.Cl`
Result: 0

====

# System: PRP4
# testSettings: concentration: 1 μM, replicates: in singlicate; n = 1
experimentalEndpoint: %Inh (%)
The reply should be a number in %, with the unit left off.

> print(dat)
                      molecule  observedmeasurement
1  Nc1ncnc2c1ncn2-c1ccc(Cl)cc1                   36

Q: Give its %Inh value. Item: `Cc1ccccc1COc1cc(-n2cnc3cc(Cl)ccc32)sc1C(N)=O`
Result: 19

Q: Give its %Inh value. Item: `Cl.NS(=O)(=O)c1cccc(Nc2cc(-c3ccc(F)cc3)n[nH]2)c1`
Result: 0

====

# Tested on: CSNK1G2
# testSettings: concentration: 1 μM, replicates: in singlicate; n = 1
experimentalEndpoint: %Inh (%)
The reply should be a number in %, with the unit left off.

Answered cases to consult:
> print(dat)
                                   compound  targetdesc  observedmeasurement
1  Cc1ccc(Oc2ccc(Nc3ncnc4cc[nH]c34)cc2C)cn1     CSNK1G2                   13
2  CCCC(=O)Nc1n[nH]c2ncc(-c3cccc4ccccc34)cc12 [SB-642057]     CSNK1G2                    0

Q: Give its %Inh value. Item: `Cc1nc(N(C)[C@H]2CN(C(=O)CC#N)CC[C@H]2C)c2cc[nH]c2n1`
Result: 0

Q: Give its %Inh value. Item: `CCC(=O)c1c(-c2ccccc2)c2cc(Cl)ccc2c(=O)n1Cc1cc(S(C)(=O)=O)n(CCC(C)(C)O)n1`
Result: 15

Q: Give its %Inh value. Item: Nc1n[nH]c2ncc(-c3ccccc3)cc12 [SB-517081]
Result: 0

Q: Give its %Inh value. Item: `COc1ccc(-c2cc3c(C)nc(N)nc3n([C@H]3CC[C@H](OCCO)CC3)c2=O)cn1`
Result: 0

Q: Give its %Inh value. Item: Nc1n[nH]c2nnc(-c3ccccc3)c(-c3ccccc3)c12 [GW554060]
Result: 0

Q: Give its %Inh value. Item: Cl.NS(=O)(=O)c1cccc(Nc2cc(-c3ccc(F)cc3)n[nH]2)c1 [GW824645]
Result: 0

Q: Give its %Inh value. Item: CN1C(=O)C(Nc2ccccc2)=C(c2ccccc2)C1=O [SB-300079]
Result: 0

Q: Give its %Inh value. Item: Cc1nn2c(=O)cc(N3CCOCC3)nc2n1Cc1cccc(Cl)c1Cl [GSK2342769]
Result: 0

Q: Give its %Inh value. Item: O=C(Nc1n[nH]c2nc(-c3ccccc3)c(Br)cc12)C1CC1 [SB-708998]
Result: 2

Q: Give its %Inh value. Item: Cc1cccc(-c2cc(-c3c[nH]nc3-c3ccccn3)ccn2)c1 [GW679395]
Result: 0

Q: Give its %Inh value. Item: `CCC(=O)c1c(-c2ccccc2)c2cc(Cl)ccc2c(=O)n1Cc1ccc(C(=O)O)cc1`
Result: 0

Q: Give its %Inh value. Item: OCCCNc1nccc(-c2c(-c3cccc(C(F)(F)F)c3)nn3cc(C(F)(F)F)ccc23)n1 [GW630813]
Result: 0

Q: Give its %Inh value. Item: `Cc1ccc(-c2ccc3c(ccc4sc5c(c43)NC[C@@H](C)N=C5N(C)C)n2)cn1`
Result: 0

====

# System: JAK1(JH2domain-pseudokinase)
# testSettings: concentration: 1 μM, replicates: in singlicate; n = 1
experimentalEndpoint: %Inh (%)
The reply should be a number in %, with the unit left off.

Answered cases to consult:
> print(dat)
                                   compound  experimentalendpoint  u  observedmeasurement
1                CCn1c(-c2nonc2N)nc2ccccc21                  %Inh  %                    0
2             COc1ccc(-n2cnc3c(N)ncnc32)cc1                  %Inh  %                   68
3  COc1cc(Nc2nccc(N3CCC(NC(=O)C4COc5ccccc5O4)C3)n2)cc(OC)c1OC (centres unmarked)                  %Inh  %                   21
4  COc1cc(OC)cc(-c2cc3cnc(N)nc3nc2NC(=O)NC(C)(C)C)c1                  %Inh  %                    0
5                Nc1ncnc2c1ncn2-c1cccc(F)c1                  %Inh  %                   12
6  Cc1ccccc1COc1cc(-n2cnc3cc(Cl)ccc32)sc1C(N)=O                  %Inh  %                   20
7  CCC(=O)c1c(-c2ccccc2)c2cc(Cl)ccc2c(=O)n1Cc1cc(C(=O)NC2CC2)n(C)n1                  %Inh  %                    3
8   O=C(Nc1n[nH]c2cc(-c3ccccc3F)ccc12)C1CC1                  %Inh  %                   17

Q: Give its %Inh value. Item: `O=C(Nc1ccc2c(c1)OCO2)NC1CCN(c2ccnc(NCc3ccc(F)cc3)n2)CC1`
Result: 0

Q: Give its %Inh value. Item: `O=c1cc(N2CCOCC2)nc2n(Cc3ccc(F)c(Cl)c3)ccn12`
Result: 0
